Item-by-item account of inhibition at 1 µM
targetOrSystem: Rat brain protein farnesyltransferase (Rattus norvegicus, UniProt Q02293+Q04631)
Construct: The enzyme is purified according to Reiss, Y., et al., Cell, 62: 81-88 (1990), utilizing steps one through three; from tissue; host or cells: rat brain
test: In vitro inhibition of protein farnesyltransferase, Amersham scintillation proximity assay with biotin-K Ras B fragment
Assay type: biochemical
appliedConditions: read-out: % inhibition at 1 × 10^−6 M
Where a name gives a salt, the structure may show the parent alone.
measuredQuantity: inhibition at 1 µM (%)

- molecule: "CSCC[C@H](NC(=O)c1ccc(/C=C/n2ccnc2)cc1-c1ccccc1C)C(=O)O [Example 278, Sodium Salt]"
  targetOrSystem: "Rat brain protein farnesyltransferase (Rattus norvegicus, UniProt Q02293+Q04631)"
  scaleUnit: "%"
  measValue: 99
- molecule: "CSCC[C@H](NC(=O)c1ccc(CCn2ccnc2)cc1-c1ccccc1C)C(=O)O [Example 279, Sodium Salt]"
  targetOrSystem: "Rat brain protein farnesyltransferase (Rattus norvegicus, UniProt Q02293+Q04631)"
  scaleUnit: "%"
  measValue: 99
- molecule: "CSCC[C@H](NC(=O)c1ccc(/C=C/c2cnccc2N(C)C)cc1-c1ccccc1)C(=O)O [Example 214, Sodium Salt]"
  targetOrSystem: "Rat brain protein farnesyltransferase (Rattus norvegicus, UniProt Q02293+Q04631)"
  scaleUnit: "%"
  measValue: 97
- molecule: "CSCC[C@H](NC(=O)c1ccc(C(O[Si](C)(C)C(C)(C)C)c2ccncc2)cc1-c1ccccc1)C(=O)O (stereo partly drawn) [Example 297, Sodium Salt]"
  targetOrSystem: "Rat brain protein farnesyltransferase (Rattus norvegicus, UniProt Q02293+Q04631)"
  scaleUnit: "%"
  measValue: 65
- molecule: "CSCC[C@H](NC(=O)c1ccc(NC(=O)c2cnccc2C(F)(F)F)cc1-c1ccccc1)C(=O)O [Example 282, Sodium Salt]"
  targetOrSystem: "Rat brain protein farnesyltransferase (Rattus norvegicus, UniProt Q02293+Q04631)"
  scaleUnit: "%"
  measValue: 76
- molecule: "CSCC[C@H](NC(=O)c1ccc(COc2cccnc2)cc1-c1ccccc1)c1nnc(C(F)(F)F)[nH]1"
  targetOrSystem: "Rat brain protein farnesyltransferase (Rattus norvegicus, UniProt Q02293+Q04631)"
  scaleUnit: "%"
  measValue: 96
- molecule: "CSCC[C@H](NC(=O)c1ccc(C=Cc2cccnc2)cc1-c1ccccc1C)C(=O)OCCN(C)C"
  targetOrSystem: "Rat brain protein farnesyltransferase (Rattus norvegicus, UniProt Q02293+Q04631)"
  scaleUnit: "%"
  measValue: 98
- molecule: "CNCCc1cnc[nH]1"
  targetOrSystem: "Rat brain protein farnesyltransferase (Rattus norvegicus, UniProt Q02293+Q04631)"
  scaleUnit: "%"
  measValue: 96
- molecule: "O=C(N[C@@H](CCO)C(=O)O)c1ccc(NCc2cccnc2)cc1-c1ccccc1"
  targetOrSystem: "Rat brain protein farnesyltransferase (Rattus norvegicus, UniProt Q02293+Q04631)"
  scaleUnit: "%"
  measValue: 28

---

targetOrSystem: Rat brain protein farnesyltransferase (Rattus norvegicus, UniProt Q02293+Q04631)
Construct: The enzyme is purified according to Reiss, Y., et al., Cell, 62: 81-88 (1990), utilizing steps one through three; from tissue; host or cells: rat brain
test: In vitro inhibition of protein farnesyltransferase, Amersham scintillation proximity assay with biotin-K Ras B fragment
Assay type: biochemical
appliedConditions: read-out: % inhibition at 1 × 10^−7 M
Where a name gives a salt, the structure may show the parent alone.
measuredQuantity: inhibition at 0.1 µM (%)

- compound: "CSCC[C@H](NC(=O)c1ccc(CCc2ccc(Oc3ccccc3)nc2)cc1-c1ccccc1C)C(=O)O [Example 801, Lithium Salt]"
  measuredQuantity: "inhibition at 0.1 µM"
  measValue: 87
- compound: "CSCC[C@H](NC(=O)c1ccc(/C=C/c2ccc(Oc3ccccc3Cl)nc2)cc1-c1ccccc1C)C(=O)O [Example 802, Lithium Salt]"
  measuredQuantity: "inhibition at 0.1 µM"
  measValue: 88
- compound: "CSCC[C@H](NC(=O)c1ccc(COc2cccnc2)cc1-c1c(C)noc1C)C(=O)O [Example 823, Lithium Salt]"
  measuredQuantity: "inhibition at 0.1 µM"
  measValue: 75

---

targetOrSystem: Rat brain protein farnesyltransferase (Rattus norvegicus, UniProt Q02293+Q04631)
Construct: The enzyme is purified according to Reiss, Y., et al., Cell, 62: 81-88 (1990), utilizing steps one through three; from tissue; host or cells: rat brain
test: In vitro inhibition of protein farnesyltransferase, Amersham scintillation proximity assay with biotin-K Ras B fragment
Type: biochemical
appliedConditions: Inhibition of farnesyltransferase; compound at 1 × 10^−8 M (Table 4); read-out: % inhibition at 1 × 10^−8 M
measuredQuantity: inhibition at 0.01 µM

- recordSmiles: "CSCC[C@H](NC(=O)c1ccc(CN(CC2CCCCC2)c2cccnc2)cc1-c1ccccc1C)C(=O)O"
  measValue: "> 95%"
- recordSmiles: "CSCC[C@H](NC(=O)c1ccc(OCCn2ccnc2)cc1-c1ccccc1)C(=O)O"
  measValue: "> 50%"
- recordSmiles: "CSCC[C@H](NC(=O)c1ccc(CNCc2c[nH]cn2)cc1-c1ccccc1C)C(=O)O"
  measValue: "> 50%"

---

targetOrSystem: Rat brain protein farnesyltransferase (Rattus norvegicus, UniProt Q02293+Q04631)
Construct: The enzyme is purified according to Reiss, Y., et al., Cell, 62: 81-88 (1990), utilizing steps one through three; from tissue; host or cells: rat brain
test: In vitro inhibition of protein farnesyltransferase, Amersham scintillation proximity assay with biotin-K Ras B fragment
Assay type: biochemical
appliedConditions: Inhibition of farnesyltransferase; compound at 1 × 10^−7 M (Table 3); read-out: % inhibition at 1 × 10^−7 M
Where a name gives a salt, the structure may show the parent alone.
Recorded inhibition at 0.1 µM by entry

- compound: "CSCC[C@H](NC(=O)c1ccc(CCc2cnccc2C(O)c2ccccc2)cc1-c1ccccc1C)C(=O)O (stereo partly drawn) [Example 485, Lithium Salt]"
  targetOrSystem: "Rat brain protein farnesyltransferase (Rattus norvegicus, UniProt Q02293+Q04631)"
  inhibition at 0.1 µM: "96%"
- compound: "CSCC[C@H](NC(=O)c1ccc(CN(c2cccnc2)S(=O)(=O)c2ccccc2)cc1-c1ccccc1C)C(=O)O [Example 570]"
  targetOrSystem: "Rat brain protein farnesyltransferase (Rattus norvegicus, UniProt Q02293+Q04631)"
  inhibition at 0.1 µM: "92%"
- compound: "CSCC[C@H](NC(=O)c1ccc(/C=C/c2cnccc2C(O)c2ccccc2)cc1-c1ccccc1C)C(=O)O (stereo partly drawn) [Example 484, Lithium Salt]"
  targetOrSystem: "Rat brain protein farnesyltransferase (Rattus norvegicus, UniProt Q02293+Q04631)"
  inhibition at 0.1 µM: "97%"

---

targetOrSystem: Rat brain protein farnesyltransferase (Rattus norvegicus, UniProt Q02293+Q04631)
Construct: The enzyme is purified according to Reiss, Y., et al., Cell, 62: 81-88 (1990), utilizing steps one through three; from tissue; host or cells: rat brain
test: In vitro inhibition of protein farnesyltransferase, Amersham scintillation proximity assay with biotin-K Ras B fragment
Format: biochemical
appliedConditions: Inhibition of farnesyltransferase; compound at 1 × 10^−6 M (Table 2); read-out: % inhibition at 1 × 10^−6 M
Structures can show the parent of a compound that is named as a salt.

- molecule: "CSCC[C@@H](CC(=O)O)NC(=O)c1ccc(COc2cccnc2)cc1-c1ccccc1"
  scaleUnit: "%"
  comparativeSign: "="
  inhibition at 1 µM: 79
- molecule: "CSCC[C@H](NC(=O)c1ccc(NCc2cccnc2)cc1-c1ccccc1)C(=O)O"
  scaleUnit: "%"
  comparativeSign: "="
  inhibition at 1 µM: 95
- molecule: "CSCC[C@H](NC(=O)c1ccc(CN(Cc2ccccc2)c2cccnc2)cc1-c1ccccc1C)C(=O)O"
  scaleUnit: "%"
  comparativeSign: "="
  inhibition at 1 µM: 98
- molecule: "CCCC[C@H](NC(=O)c1ccc(COc2cccnc2)cc1-c1ccccc1)C(=O)O"
  scaleUnit: "%"
  comparativeSign: "="
  inhibition at 1 µM: 21
- molecule: "CSCC[C@H](NC(=O)c1ccc(CNc2ccncc2)cc1-c1ccccc1)C(=O)O"
  scaleUnit: "%"
  comparativeSign: "="
  inhibition at 1 µM: 54
- molecule: "CSCC[C@H](NC(=O)c1ccc(CSc2cccnc2)cc1-c1ccccc1C)C(=O)NS(=O)(=O)c1ccccc1"
  scaleUnit: "%"
  comparativeSign: "="
  inhibition at 1 µM: 99
- molecule: "CSCC[C@H](NC(=O)c1cc(-c2ccc(C)cc2)c(COc2cccnc2)cc1-c1ccccc1C)C(=O)O"
  scaleUnit: "%"
  comparativeSign: "="
  inhibition at 1 µM: 72
- molecule: "CSCC[C@H](NC(=O)c1ccc(CNC(=O)c2cn(C)cn2)cc1-c1ccccc1)C(=O)O"
  scaleUnit: "%"
  comparativeSign: "="
  inhibition at 1 µM: 26
- molecule: "O=C(N[C@H]1CCOC1=O)c1ccc(NCc2cccnc2)cc1-c1ccccc1"
  scaleUnit: "%"
  comparativeSign: "="
  inhibition at 1 µM: 4
- molecule: "CSCC[C@H](NC(=O)c1ccc(COc2cccnc2)cc1-c1ccccc1)C(=O)NO"
  scaleUnit: "%"
  comparativeSign: "="
  inhibition at 1 µM: 77
- molecule: "CSCC[C@H](NC(=O)c1ccc(COc2cccnc2)cc1-c1ccccc1C)C(=O)O"
  scaleUnit: "%"
  comparativeSign: "="
  inhibition at 1 µM: 98
- molecule: "CSCC[C@H](NC(=O)c1ccc(COc2cccnc2)cc1-c1cccc(C)c1)C(=O)O"
  scaleUnit: "%"
  comparativeSign: "="
  inhibition at 1 µM: 98
- molecule: "CSCCCNC(=O)c1ccc(CN(Cc2ccccc2)c2cccnc2)cc1-c1ccccc1C"
  scaleUnit: "%"
  comparativeSign: "="
  inhibition at 1 µM: 69
- molecule: "CS(=O)(=O)CC[C@H](NC(=O)c1ccc(CNc2cccnc2)cc1-c1ccccc1)C(=O)O"
  scaleUnit: "%"
  comparativeSign: "="
  inhibition at 1 µM: 97
- molecule: "NC(=O)CC[C@H](NC(=O)c1ccc(COc2cccnc2)cc1-c1ccccc1)C(=O)O"
  scaleUnit: "%"
  comparativeSign: "="
  inhibition at 1 µM: 63
- molecule: "COc1ccncc1NCc1ccc(C(=O)N[C@@H](CCSC)C(=O)O)c(-c2ccccc2)c1 [Example 281, Sodium Salt]"
  scaleUnit: "%"
  comparativeSign: "="
  inhibition at 1 µM: 98
- molecule: "CSCC[C@H](NC(=O)c1ccc(C=Cc2cccnc2)cc1-c1ccccc1C)C(=O)O [Example 276, Sodium Salt]"
  scaleUnit: "%"
  comparativeSign: "="
  inhibition at 1 µM: 98
- molecule: "COC(=O)[C@H](CCSC)NC(=O)c1ccc(CCc2cccnc2)cc1-c1ccccc1"
  scaleUnit: "%"
  comparativeSign: "="
  inhibition at 1 µM: 12
- molecule: "Cc1ccccc1-c1cc(NCc2c[nH]cn2)ccc1C(=O)N[C@@H](CC(C)C)C(=O)O [Example 962, Hydrochloride]"
  scaleUnit: "%"
  comparativeSign: ">"
  inhibition at 1 µM: 50
- molecule: "CC(C)C[C@H](NC(=O)c1ccc(OCCn2ccnc2)cc1-c1ccccc1)C(=O)O"
  scaleUnit: "%"
  comparativeSign: ">"
  inhibition at 1 µM: 50
- molecule: "CSCC[C@H](NC(=O)c1ccc(CNc2ccccn2)cc1-c1ccccc1)C(=O)O"
  scaleUnit: "%"
  comparativeSign: "="
  inhibition at 1 µM: 30
- molecule: "CSCC[C@H](NC(=O)c1ccc(NC(=O)c2cccnc2)cc1-c1ccccc1C)C(=O)O"
  scaleUnit: "%"
  comparativeSign: "="
  inhibition at 1 µM: 98
- molecule: "CSCC[C@@H](NC(=O)c1ccc(CNc2cccnc2)cc1-c1ccccc1)C(=O)O (stereo in doubt)"
  scaleUnit: "%"
  comparativeSign: "="
  inhibition at 1 µM: 88
- molecule: "CSCC[C@H](NC(=O)c1ccc(C=Cc2cccnc2)cc1-c1ccccc1)C(=O)O [Example 211, Sodium Salt]"
  scaleUnit: "%"
  comparativeSign: "="
  inhibition at 1 µM: 98

These entries and their values trace back to patent US6693123B2.
